system: Escherichia coli TOP10; test: shrunken log2 fold change of peptide-encoding DNA abundance (4.5 h post-induction vs induction); higher = less antimicrobial activity (less host growth inhibition); settings: time post-induction: 4.5 h; library: site-saturation at positions 5, 18, 19, 20
# cutoff 0.01 applies to shrunken log2 fold change; >= gives criterion met, < gives criterion not met

Request: Given RRIRCRPPRLPRPRPRPNVWPRP , state whether its shrunken log2 fold change is at least 0.01.
Result: criterion met

Request: Check this sequence for shrunken log2 fold change at or above 0.01: RRIRPRPPRLPRPRPRPDCLPRP
Result: criterion met

Request: Is the recorded value of shrunken log2 fold change equal to or greater than 0.01 for this sequence? RRIRTRPPRLPRPRPRPVMDPRP
Result: criterion not met

Request: Could you verify whether the entry RRIRGRPPRLPRPRPRPSRTPRP shows shrunken log2 fold change of no less than 0.01?
Result: criterion met

Request: Is the recorded value of shrunken log2 fold change equal to or greater than 0.01 for this sequence? RRIRGRPPRLPRPRPRPFTIPRP
Result: criterion not met

Request: Please indicate if the recorded shrunken log2 fold change for RRIRDRPPRLPRPRPRPERLPRP meets or exceeds 0.01.
Result: criterion met

Request: Could you tell me if the measured shrunken log2 fold change of RRIRRRPPRLPRPRPRPACAPRP reaches 0.01 or more?
Result: criterion met

Request: Tell me whether shrunken log2 fold change is at least 0.01 here: RRIRHRPPRLPRPRPRPCKLPRP
Result: criterion not met

* * *

Would you kindly list shrunken log2 fold change for each of these sequences?
tested on: Escherichia coli TOP10; test: shrunken log2 fold change of peptide-encoding DNA abundance (4.5 h post-induction vs induction); higher = less antimicrobial activity (less host growth inhibition); settings: time post-induction: 4.5 h; library: site-saturation at positions 5, 18, 19, 20
Keep the answer to the number alone.

Request: Entry under review: RRIRCRPPRLPRPRPRPQVSPRP . Reported shrunken log2 fold change?
Result: -0.0343

Request: Please give the measured shrunken log2 fold change for this sequence: RRIRQRPPRLPRPRPRPGCSPRP
Result: 0.0894

Request: Value lookup for shrunken log2 fold change; key = RRIRYRPPRLPRPRPRPTTPPRP
Result: -0.437

Request: What does the data say about its shrunken log2 fold change? Entry: RRIRRRPPRLPRPRPRPHTMPRP
Result: -0.0621

Request: Please look up its shrunken log2 fold change: RRIRMRPPRLPRPRPRPRNEPRP
Result: 0.471

Request: I have this sequence here, RRIRLRPPRLPRPRPRPQSLPRP , and I need its recorded shrunken log2 fold change.
Result: -0.0995

Request: Which shrunken log2 fold change value is on record for RRIRFRPPRLPRPRPRPPDQPRP ?
Result: 0.63

Request: // query shrunken log2 fold change value for entry RRIRVRPPRLPRPRPRPLDVPRP
Result: -0.277

* * *

system: Escherichia coli TOP10; assay: shrunken log2 fold change of peptide-encoding DNA abundance (4.5 h post-induction vs induction); higher = less antimicrobial activity (less host growth inhibition); conditions: time post-induction: 4.5 h; library: site-saturation at positions 5, 18, 19, 20;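 also: peptides expressed intracellularly from a pBAD plasmid library in pooled LB shake-flask culture, induced with 0.3% L-arabinose, DNA abundance read by NGS, three biological replicates, DESeq2 with apeglm shrinkage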
Metric: shrunken log2 fold change
Hey, just send me the number, nothing else.

Request: GET /values?readout=shrunken log2 fold change&item= RRIRCRPPRLPRPRPRPRDGPRP
Result: 1

Request: Report shrunken log2 fold change for RRIRNRPPRLPRPRPRPQVQPRP please.
Result: -0.524

Request: Which shrunken log2 fold change is listed for RRIRKRPPRLPRPRPRPRMIPRP ?
Result: -0.00692

Request: Param item = RRIRGRPPRLPRPRPRPPHHPRP ; retrieve measured shrunken log2 fold change.
Result: 0.537

Request: State the recorded shrunken log2 fold change for this entry: RRIRSRPPRLPRPRPRPIFNPRP
Result: -0.317

Request: Which value of shrunken log2 fold change has been reported for RRIRSRPPRLPRPRPRPNIVPRP in the records?
Result: 0.238

Request: What value of shrunken log2 fold change has been recorded for this entry: RRIRHRPPRLPRPRPRPGPVPRP
Result: 0.26

Request: Which shrunken log2 fold change value is on record for RRIRPRPPRLPRPRPRPGYLPRP ?
Result: -0.129

Request: Query (sequence): RRIRLRPPRLPRPRPRPLTHPRP ; field requested: shrunken log2 fold change
Result: -0.0644

Request: Quick one: shrunken log2 fold change of RRIRKRPPRLPRPRPRPKTNPRP ?
Result: 0.485

Request: Returns the measured shrunken log2 fold change for the input sequence. Input: RRIRRRPPRLPRPRPRPMRYPRP
Result: 0.236

Request: Reported shrunken log2 fold change, sequence RRIRTRPPRLPRPRPRPDKYPRP : ____
Result: -0.147

Request: Consider the sequence RRIRLRPPRLPRPRPRPCCNPRP and give its measured shrunken log2 fold change.
Result: -0.155

Request: Need shrunken log2 fold change of RRIRYRPPRLPRPRPRPGYDPRP , thanks.
Result: -0.205

Request: Given the entry RRIRARPPRLPRPRPRPKQSPRP , report its measured shrunken log2 fold change.
Result: 0.608

Request: Fill in: shrunken log2 fold change of RRIRDRPPRLPRPRPRPEHVPRP is ___
Result: 0.212

Request: Bench note: what shrunken log2 fold change did RRIRMRPPRLPRPRPRPLHKPRP show?
Result: 0.301

Request: Look up shrunken log2 fold change: RRIRKRPPRLPRPRPRPPMVPRP
Result: 0.296

Request: # lookup: shrunken log2 fold change of RRIRTRPPRLPRPRPRPWSVPRP
Result: -0.199

Request: Reported shrunken log2 fold change, sequence RRIRDRPPRLPRPRPRPYQYPRP : ____
Result: -0.0404

Request: Give the measured shrunken log2 fold change of RRIRNRPPRLPRPRPRPLTIPRP .
Result: -0.389

Request: Item RRIRLRPPRLPRPRPRPCNLPRP has what recorded shrunken log2 fold change?
Result: 0.034

Request: Quick one: shrunken log2 fold change for RRIRCRPPRLPRPRPRPISIPRP ?
Result: -0.443

Request: # shrunken log2 fold change lookup, item RRIRPRPPRLPRPRPRPWGSPRP
Result: 0.216

Request: shrunken log2 fold change for RRIRGRPPRLPRPRPRPHWWPRP ?
Result: 0.66

Request: Dear colleague, I am looking for the recorded shrunken log2 fold change of the following sequence: RRIRRRPPRLPRPRPRPMDTPRP
Result: 0.229

Request: Record request: shrunken log2 fold change value, item RRIRCRPPRLPRPRPRPQAHPRP
Result: -0.132

Request: Recorded shrunken log2 fold change of RRIRTRPPRLPRPRPRPVAKPRP , please.
Result: 0.111

Request: For the sequence shown here, RRIRQRPPRLPRPRPRPMNSPRP , give the reported shrunken log2 fold change.
Result: -0.468

Request: If you can, please state the reported shrunken log2 fold change value of RRIRIRPPRLPRPRPRPKHWPRP .
Result: 0.357

Request: Need shrunken log2 fold change, item RRIRIRPPRLPRPRPRPVDMPRP
Result: -0.51

Request: I have this sequence here, RRIRGRPPRLPRPRPRPETVPRP , and I need its recorded shrunken log2 fold change.
Result: 0.431
